# TARGET_ENTITY: Adenosine receptor A3 (Homo sapiens)
# Sequence (P0DMS8 whole entry): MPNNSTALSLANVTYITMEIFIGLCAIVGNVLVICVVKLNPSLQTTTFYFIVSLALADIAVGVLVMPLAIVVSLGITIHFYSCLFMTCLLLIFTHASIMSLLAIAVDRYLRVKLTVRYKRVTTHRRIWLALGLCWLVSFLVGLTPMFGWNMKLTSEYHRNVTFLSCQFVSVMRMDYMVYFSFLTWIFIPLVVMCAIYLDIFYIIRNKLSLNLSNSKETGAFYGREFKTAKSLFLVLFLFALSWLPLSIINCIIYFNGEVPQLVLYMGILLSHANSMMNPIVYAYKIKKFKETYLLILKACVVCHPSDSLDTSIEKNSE
# ASSAY_NAME: Inhibition of cAMP accumulation in CHO cells expressing human adenosine A3 receptor; range 5.1-8.9
# Format: functional, cell-based

{"columns": ["MOL_SMILES", "TARGET_ENTITY", "IC50 (nM)"],
 "data": [
  ["COc1ccc(NC(=O)Nc2nc3nn(C(C)(C)C)cc3c3nc(-c4ccco4)nn23)cc1", "Adenosine receptor A3 (Homo sapiens)", 6.8]
]}

###

# TARGET_ENTITY: UniProt:P29275
# Sequence (P29275 whole entry): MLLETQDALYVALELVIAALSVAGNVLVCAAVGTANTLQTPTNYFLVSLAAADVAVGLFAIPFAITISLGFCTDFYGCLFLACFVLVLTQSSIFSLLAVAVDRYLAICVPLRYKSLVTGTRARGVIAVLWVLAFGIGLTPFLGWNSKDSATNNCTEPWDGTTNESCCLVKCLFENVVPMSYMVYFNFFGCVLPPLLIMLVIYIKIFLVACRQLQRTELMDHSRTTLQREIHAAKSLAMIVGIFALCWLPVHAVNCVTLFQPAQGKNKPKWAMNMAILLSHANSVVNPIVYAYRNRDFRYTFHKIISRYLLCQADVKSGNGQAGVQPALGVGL
# ASSAY_NAME: Displacement of [3H]DPCPX from Adenosine A2b receptor expressed in […]; range 1531-1920
# Assay type: cell-based

{"columns": ["MOL_SMILES", "TARGET_ENTITY", "Ki"],
 "data": [
  ["COc1ccc(NC(=O)Nc2nc3nn(C(C)(C)C)cc3c3nc(-c4ccco4)nn23)cc1", "UniProt:P29275", "1720 nM"]
]}

###

# TARGET_ENTITY: Adenosine receptor A1 (Homo sapiens, UniProt P30542)
# Sequence (P30542 whole entry): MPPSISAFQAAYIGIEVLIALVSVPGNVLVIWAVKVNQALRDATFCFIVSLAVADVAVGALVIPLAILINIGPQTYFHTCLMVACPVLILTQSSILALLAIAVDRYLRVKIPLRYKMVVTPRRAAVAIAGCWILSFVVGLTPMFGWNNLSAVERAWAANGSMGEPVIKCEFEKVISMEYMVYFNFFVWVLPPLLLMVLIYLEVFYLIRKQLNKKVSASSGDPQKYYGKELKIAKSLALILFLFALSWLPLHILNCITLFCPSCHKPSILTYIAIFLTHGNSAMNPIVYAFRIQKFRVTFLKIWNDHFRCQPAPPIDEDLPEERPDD
# ASSAY_NAME: Displacement of [3H]DPCPX from human adenosine A1 receptor expressed in CHO cells; range 149-204
# Assay type: cell-based
pKi: −log10 of the molar value.
READOUT_TYPE: pKi

{"columns": ["MOL_SMILES", "TARGET_ENTITY", "READOUT_TYPE", "NUMERIC_VALUE"],
 "data": [
  ["COc1ccc(NC(=O)Nc2nc3nn(CCC(C)C)cc3c3nc(-c4ccco4)nn23)cc1", "Adenosine receptor A1 (Homo sapiens, UniProt P30542)", "pKi", 6.76]
]}

###

# TARGET_ENTITY: Adenosine receptor A2a (Homo sapiens, UniProt P29274)
# Sequence (P29274 whole entry): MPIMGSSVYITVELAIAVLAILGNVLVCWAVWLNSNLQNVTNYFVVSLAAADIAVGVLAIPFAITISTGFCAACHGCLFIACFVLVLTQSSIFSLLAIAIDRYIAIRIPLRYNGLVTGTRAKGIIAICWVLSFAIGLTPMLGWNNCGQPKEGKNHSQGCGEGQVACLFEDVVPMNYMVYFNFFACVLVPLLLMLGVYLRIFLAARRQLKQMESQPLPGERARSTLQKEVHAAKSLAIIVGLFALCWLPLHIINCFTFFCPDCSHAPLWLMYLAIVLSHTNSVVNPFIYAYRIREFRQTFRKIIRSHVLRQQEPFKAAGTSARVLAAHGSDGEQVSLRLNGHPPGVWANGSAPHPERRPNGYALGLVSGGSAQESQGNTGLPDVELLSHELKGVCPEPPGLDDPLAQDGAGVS
# ASSAY_NAME: biochemical
# Description: Displacement of [3H]-SCH- 58261 from human adenosine A2A receptor expressed in CHO cells; range 0.22-0.44
pKi: −log10 of the molar value.
READOUT_TYPE: pKi

{"columns": ["MOL_SMILES", "READOUT_TYPE", "NUMERIC_VALUE"],
 "data": [
  ["Nc1nc2nn(CCc3ccccc3)cc2c2nc(-c3ccco3)nn12", "pKi", 9.47]
]}
